B1: library; numbered along this chain (parent)
chain: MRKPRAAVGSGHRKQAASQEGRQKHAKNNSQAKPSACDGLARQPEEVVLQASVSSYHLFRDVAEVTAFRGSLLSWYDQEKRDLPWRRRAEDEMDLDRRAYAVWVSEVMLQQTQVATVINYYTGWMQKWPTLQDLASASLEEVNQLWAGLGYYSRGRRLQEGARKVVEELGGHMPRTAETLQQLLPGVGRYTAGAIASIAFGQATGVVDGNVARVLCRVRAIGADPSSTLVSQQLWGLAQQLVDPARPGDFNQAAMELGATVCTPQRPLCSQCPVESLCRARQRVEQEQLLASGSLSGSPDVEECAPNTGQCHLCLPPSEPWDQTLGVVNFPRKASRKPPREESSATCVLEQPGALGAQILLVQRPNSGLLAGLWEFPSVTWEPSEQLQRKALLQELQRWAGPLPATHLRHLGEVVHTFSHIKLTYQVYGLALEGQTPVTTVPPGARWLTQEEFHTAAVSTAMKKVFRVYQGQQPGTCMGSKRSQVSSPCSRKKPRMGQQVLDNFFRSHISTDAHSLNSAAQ

- Variants of: B1
- protocol.description: 8OG:A repair function score (normalized; synonymous = 0, nonsense = -1) (normalized log-likelihood score); higher = more repair activity (WT-like);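 note: cells sorted at 72 h after reporter transfection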
- settings: with 8OG:A DNA repair reporter (GFP) in HEK-293 MUTYH KO cells
# if value of 8OG:A repair function score reaches -0.1, tag true; if it stays below, tag false

>>> assigned_label("D61K")
"true"
>>> assigned_label("S276A")
"true"
>>> assigned_label("T130C")
"false"
>>> assigned_label("L408N")
"false"
>>> assigned_label("G479F")
"true"
>>> assigned_label("L184D")
"false"
>>> assigned_label("R175Q")
"true"
>>> assigned_label("R189A")
"false"
>>> assigned_label("G188A")
"false"
>>> assigned_label("R340Q")
"false"
